- Assay Protocol: in vitro
- Condition Details: African green monkey, Tacaribe virus CC50 Vero
Measured Parameter: CC50 (µM)
Answers are plain numbers, in µM.

| Molecule | Unit Text | CC50 |
| --- | --- | --- |
| OC[C@H]1O[C@@H](n2ccc3c(C4CC4)ncnc32)[C@H](O)[C@@H]1O [3.1a, reference compound] | µM | 100 |

Now, please, on to the next molecule.
Which measured CC50 value corresponds to `OC[C@H]1O[C@@H](n2ccc3c(C#Cc4ccc(F)cc4)ncnc32)[C@H](O)[C@@H]1O` ?
24

---

- Assay Protocol: Cytotoxicity in the human norovirus replicon assay (HG23 cells)
- Condition Details: human, HG23 Nov replicon cells
Could you please mark True for values of CC50 at 3 days below 40 µM and False for values at or above it?

Use the examples below as a reference point.
| Compound | Assigned Label |
| --- | --- |
| CCc1ncnc2c1c(C#CC1CC1)cn2[C@@H]1O[C@H](CO)[C@@H](O)[C@H]1O [3.1n] | True |
| C=Cc1cn([C@@H]2O[C@H](CO)[C@@H](O)[C@H]2O)c2ncnc(CC)c12 [3.1m] | True |
| OC[C@H]1O[C@@H](n2ccc3c(C#Cc4ccc(Cl)cc4)ncnc32)[C@H](O)[C@@H]1O [3.1j] | True |

Is 40 µM strictly greater than the compound's reported CC50 at 3 days? compound: OC[C@H]1O[C@@H](n2ccc3c(C#Cc4ccc(F)cc4)ncnc32)[C@H](O)[C@@H]1O [3.1h]
True

---

Can you tell me pEC50 for the items I'm about to list?
- System: yellow fever virus (YFV 17D strain)
- Assay Protocol: microbe, parasite or virus in culture
- Format: cell-based
- Condition Details: Yellow fever virus, Huh-7, read-out: Yellow fever virus EC50 YFV 17D strain
Answers are plain numbers, as −log10 of the molar value.

| Smi | Measured |
| --- | --- |
| OC[C@H]1O[C@@H](n2ccc3c(C#Cc4cccc(F)c4)ncnc32)[C@H](O)[C@@H]1O | 5.92 |

Quick batch: pEC50 for everything below.
1. CC#Cc1ncnc2c1ccn2[C@@H]1O[C@H](CO)[C@@H](O)[C@H]1O
2. OC[C@H]1O[C@@H](n2ccc3c(C#Cc4ccc(F)cc4)ncnc32)[C@H](O)[C@@H]1O

5.54
5.66

Quick batch: pEC50 for everything below.
1. CC(C)C#Cc1ncnc2c1ccn2[C@@H]1O[C@H](CO)[C@@H](O)[C@H]1O
2. OC[C@H]1O[C@@H](n2ccc3c(C#Cc4ccc(Cl)cc4)ncnc32)[C@H](O)[C@@H]1O

1: 5.04; 2: 5.92

---

- Test system: Vero 76 cells
- Condition Details: African green monkey
Measured Parameter: CC50 (µM)
Answers are plain numbers, in µM.

Example compounds with recorded CC50:
| Smi | Unit Text | CC50 |
| --- | --- | --- |
| CCc1ncnc2c1c(F)cn2[C@@H]1O[C@H](CO)[C@@H](O)[C@H]1O | µM | 42 |
| C=C(OCC)c1ncnc2c1ccn2[C@@H]1O[C@H](CO)[C@@H](O)[C@H]1O | µM | 100 |

Now, please, on to the next compound.
Which measured CC50 value corresponds to `CC#Cc1ncnc2c1ccn2[C@@H]1O[C@H](CO)[C@@H](O)[C@H]1O` ?
3.4

---

- Tested on: Huh7 cells
- Condition Details: read-out: Yellow fever virus CC50 Huh7; Neutral Red; YFV screen
Can you tell me CC50 for the items I'm about to list?

Example compounds with recorded CC50:
| Compound | CC50 |
| --- | --- |
| OC[C@H]1O[C@@H](n2ccc3c(C#Cc4ccc(F)cc4)ncnc32)[C@H](O)[C@@H]1O | 30 µM |
| OC[C@H]1O[C@@H](n2ccc3c(C4CC4)ncnc32)[C@H](O)[C@@H]1O [3.1a, reference compound] | > 100 µM |
| OC[C@H]1O[C@@H](n2ccc3c(C#Cc4ccc(Cl)cc4)ncnc32)[C@H](O)[C@@H]1O | 5 µM |
| CCc1ncnc2c1c(Cl)cn2[C@@H]1O[C@H](CO)[C@@H](O)[C@H]1O | > 100 µM |
| OC[C@H]1O[C@@H](n2ccc3c(C#Cc4cccc(F)c4)ncnc32)[C@H](O)[C@@H]1O | 30 µM |
| CCc1ncnc2c1c(C#CC1CC1)cn2[C@@H]1O[C@H](CO)[C@@H](O)[C@H]1O | 21 µM |

Now, please, on to the next compound.
Which measured CC50 value corresponds to `OC[C@H]1O[C@@H](n2ccc3c(C#CC4CC4)ncnc32)[C@H](O)[C@@H]1O` ?
60 µM

---

Can you tell me CC50 for the items I'm about to list?
- Test system: Vero 76 cells
- Condition Details: read-out: MERS-CoV CC50 Vero 76; Visual; MERS-CoV screen
Answers are plain numbers, in µM.

| Smi | Measured |
| --- | --- |
| OC[C@H]1O[C@@H](n2ccc3c(C#CC4CC4)ncnc32)[C@H](O)[C@@H]1O | 100 |
| OC[C@H]1O[C@@H](n2ccc3c(C#CC4CCCC4)ncnc32)[C@H](O)[C@@H]1O | 100 |
| CCCC#Cc1ncnc2c1ccn2[C@@H]1O[C@H](CO)[C@@H](O)[C@H]1O | 19 |

Now, please, on to the next molecule.
Which measured CC50 value corresponds to `CCc1ncnc2c1c(F)cn2[C@@H]1O[C@H](CO)[C@@H](O)[C@H]1O` ?
100

---

- Assay Protocol: in vitro
- Condition Details: African green monkey, Measles CC50 Vero 76
Measured Parameter: log10 of CC50 (log10 of the value in µM)
Short version: log10 scale, CC50, µM.

| Compound | Measured |
| --- | --- |
| OC[C@H]1O[C@@H](n2ccc3c(C#Cc4cccc(F)c4)ncnc32)[C@H](O)[C@@H]1O | 1.38 |
| OC[C@H]1O[C@@H](n2ccc3c(C4CC4)ncnc32)[C@H](O)[C@@H]1O [3.1a, reference compound] | 2.00 |
| OC[C@H]1O[C@@H](n2ccc3c(C#Cc4ccc(Cl)cc4)ncnc32)[C@H](O)[C@@H]1O | 1.08 |
| CC#Cc1ncnc2c1ccn2[C@@H]1O[C@H](CO)[C@@H](O)[C@H]1O | 0.56 |
| CCCC#Cc1ncnc2c1ccn2[C@@H]1O[C@H](CO)[C@@H](O)[C@H]1O | 1.80 |

Quick batch: log10 of CC50 for everything below.
1. CCc1ncnc2c1c(F)cn2[C@@H]1O[C@H](CO)[C@@H](O)[C@H]1O
2. OC[C@H]1O[C@@H](n2ccc3c(C#Cc4ccc(F)cc4)ncnc32)[C@H](O)[C@@H]1O
3. CC(C)C#Cc1ncnc2c1ccn2[C@@H]1O[C@H](CO)[C@@H](O)[C@H]1O

1: 1.51; 2: 1.45; 3: 1.53

---

- Assay Protocol: in vitro
- Condition Details: human, Yellow fever virus CC50 Huh7
Can you tell me CC50 for the items I'm about to list?
One number for each entry, in µM.

Example compounds with recorded CC50:
| Compound | Measured Parameter | Measured |
| --- | --- | --- |
| CCCC#Cc1ncnc2c1ccn2[C@@H]1O[C@H](CO)[C@@H](O)[C@H]1O [3.1f] | CC50 | 28 |
| CC(C)C#Cc1ncnc2c1ccn2[C@@H]1O[C@H](CO)[C@@H](O)[C@H]1O [3.1e] | CC50 | 28 |

Which measured CC50 value corresponds to OC[C@H]1O[C@@H](n2ccc3c(C4CC4)ncnc32)[C@H](O)[C@@H]1O [3.1a, reference compound] ?
100

---

- System: Huh7 cells
- Condition Details: human
Measured Parameter: CC50 (µM)
Numbers only, in µM.

Example compounds with recorded CC50:
| Smi | Study System | Unit Text | CC50 |
| --- | --- | --- | --- |
| C=C(OCC)c1ncnc2c1ccn2[C@@H]1O[C@H](CO)[C@@H](O)[C@H]1O | Huh7 cells | µM | 8.6 |
| OC[C@H]1O[C@@H](n2ccc3c(C#Cc4cccc(F)c4)ncnc32)[C@H](O)[C@@H]1O | Huh7 cells | µM | 22 |
| OC[C@H]1O[C@@H](n2ccc3c(C#Cc4ccc(Cl)cc4)ncnc32)[C@H](O)[C@@H]1O | Huh7 cells | µM | 13 |
| CCc1ncnc2c1c(Cl)cn2[C@@H]1O[C@H](CO)[C@@H](O)[C@H]1O | Huh7 cells | µM | 38 |
| CCc1ncnc2c1c(Br)cn2[C@@H]1O[C@H](CO)[C@@H](O)[C@H]1O | Huh7 cells | µM | 47 |

Quick batch: CC50 for everything below.
1. C#Cc1cn([C@@H]2O[C@H](CO)[C@@H](O)[C@H]2O)c2ncnc(CC)c12
2. CC#Cc1ncnc2c1ccn2[C@@H]1O[C@H](CO)[C@@H](O)[C@H]1O
3. CCc1ncnc2c1c(I)cn2[C@@H]1O[C@H](CO)[C@@H](O)[C@H]1O
4. CCCC#Cc1ncnc2c1ccn2[C@@H]1O[C@H](CO)[C@@H](O)[C@H]1O
5. CC(C)C#Cc1ncnc2c1ccn2[C@@H]1O[C@H](CO)[C@@H](O)[C@H]1O

1: 51; 2: 3.7; 3: 64; 4: 11; 5: 21
